# target.or.test.system: GST-SBP-SLBP (stem-loop binding protein) (Homo sapiens, UniProt Q14493 1-270)
# measurement.notes: targeted RNA Bind-n-Seq; RBNS binding buffer: 25 mM Tris pH 7.5, 150 mM KCl, 3 mM MgCl2, 0.1% Tween, 0.5 mg/mL BSA, 1 mM DTT; 27 nM protein, 750 pM RNA pool; temperature not stated; high values mean tight binding
# details: protein: recombinant; tags: N-terminal GST and SBP (pGEX6P1-SBP)
observable: binding signal (log2 fold change)
Supply the numeric figure in log2 fold change, leaving out any unit text.

Value of binding signal reported for the binder consensus (structured_RNA) RNA: GGUCACGUCUCAAUCAACUCCCAAAGGCUCUUCUCAGAGCCACCCAUCAACAGCUCGCAGUCAAG is 3.23

binder consensus (structured_RNA) RNA: GGUCACGUCUCAAUCAACUCCCAAAGGCUUUUUUUAGGGCCACCCAUCAACAGCUCGCAGUCAAG , binding signal observed: 1.3

Record consensus (structured_RNA) RNA: GGUCACGUCUCAAUCAACUCCCAAAGGUUUUUUUCAGAGCCACCCAUCAACAGCUCGCAGUCAAG . Reported binding signal: 0.623
